Data provenance is patent US12053470B2.

# target_or_system: SHP2 (Homo sapiens (Human), UniProt Q06124)
# Sequence (Q06124 whole entry): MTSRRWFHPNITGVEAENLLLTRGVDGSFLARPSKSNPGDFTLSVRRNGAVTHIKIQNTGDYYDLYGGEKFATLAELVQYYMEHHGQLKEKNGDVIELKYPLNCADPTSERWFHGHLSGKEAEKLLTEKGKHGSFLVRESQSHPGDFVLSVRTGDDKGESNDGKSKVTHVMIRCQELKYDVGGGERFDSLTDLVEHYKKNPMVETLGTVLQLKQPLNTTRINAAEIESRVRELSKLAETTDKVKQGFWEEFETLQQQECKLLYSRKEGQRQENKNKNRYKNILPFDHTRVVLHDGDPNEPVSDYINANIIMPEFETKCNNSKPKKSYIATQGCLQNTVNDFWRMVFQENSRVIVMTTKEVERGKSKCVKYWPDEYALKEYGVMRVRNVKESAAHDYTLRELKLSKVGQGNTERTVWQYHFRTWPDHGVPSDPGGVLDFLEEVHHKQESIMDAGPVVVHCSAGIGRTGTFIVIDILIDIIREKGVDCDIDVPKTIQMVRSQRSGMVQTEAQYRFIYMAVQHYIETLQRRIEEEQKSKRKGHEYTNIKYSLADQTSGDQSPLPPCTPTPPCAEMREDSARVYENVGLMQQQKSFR
# protocol_text: SHP2 allosteric inhibition assay (DiFMUP prompt fluorescence)
test_readout: pIC50
Please report pIC50 as the negative decimal logarithm of the molar concentration, giving only the number.

Example compounds with recorded pIC50:
# molecule, target_or_system, recorded_value
measured = [
    ("Nc1nc(N2CCC3(CC2)COC[C@H]3N)cnc1Sc1cccnc1C(F)(F)F", "SHP2 (Homo sapiens (Human), UniProt Q06124)", 7.60),
    ("C[C@H]1C[C@@H](N)C2(CCN(c3cnc(Sc4ccnc(N)c4Cl)cn3)CC2)C1", "SHP2 (Homo sapiens (Human), UniProt Q06124)", 8.22),
    ("Nc1nc(N2CCC3(CCC[C@H]3N)CC2)cnc1-c1cccc(Cl)c1Cl", "SHP2 (Homo sapiens (Human), UniProt Q06124)", 7.14),
]

Next compound, pIC50 to be filled in.
Challenge: Lab note: need pIC50 with SHP2 (Homo sapiens (Human), UniProt Q06124) for entry Nc1nc(N2CCC(N)(CF)CC2)cnc1Sc1cccc(NC(=O)c2c(O)nc3n(c2=O)CCCC3)c1Cl , please look it up.
Response given: 8.22
